Tested on: SF-295 CNS
Measurement Description: NCI tumour cell line growth inhibition, 48 h
Endpoint: TGI

The reported TGI of the molecule COc1cc2c3c(c1OC)C1(C=CC(=O)C=C1)C[C@H]3N(C)CC2 was > 100 µM

The reported TGI of the molecule CC(C)NC(=O)OCCN=c1c2ccccc2ccc2ccccc12 was > 100 µM

The reported TGI of the molecule S=C(Nc1ccc2c(c1)oc1ccccc12)c1cccnc1 was > 100 µM

The reported TGI of the molecule S=C1OC2CCCC[C@H]2O1 (some centres not stated) was > 100 µM

The reported TGI of the molecule C=CC/C=C/C/C=C/CCCCCCCc1cccc(O)c1C(=O)O was > 100 µM

The reported TGI of the molecule CC1=CC(C/C(C)=C/COc2ccc3ccc(=O)oc3c2)OC1=O (configuration not stated) was > 100 µM

The reported TGI of the molecule COc1cccc(C#Cc2ccccc2C#CCCCCO)c1 was 22.1 µM

The reported TGI of the molecule CC1=C(C(=O)Nc2ccc(F)c(Cl)c2)C(c2cccc(O)c2)NC(=O)N1 (configuration not stated) was > 100 µM

The reported TGI of the molecule COc1ccc(CCN2COc3c([C@@H](C)CCC=C(C)C)ccc(C)c3C2)cc1OC was 6.56 µM

The reported TGI of the molecule Cc1ccc(O)c(-c2cscn2)c1 was > 100 µM

The reported TGI of the molecule Cc1ccc2c(c1)C(=O)C1(C2)Cc2cccc(C)c2C1=O (configuration not stated) was > 100 µM

The reported TGI of the molecule N#Cc1c(Cl)cc(Cl)n2c1nc1ccccc12 was 32.4 µM

====

System: HCC-2998 colon
Measurement Description: NCI tumour cell line growth inhibition, 48 h
Endpoint: TGI

The reported TGI of the molecule N#CC1=C(N)N(c2ccccc2)C(c2ccccc2)C1(C#N)C#N (stereo not drawn) was 30.2 µM

The reported TGI of the molecule COC(=O)C1=C(C)NC(C)=C(C(=O)OC)C1c1nc2sccn2c1[N+](=O)[O-] was > 100 µM

The reported TGI of the molecule CCC(=O)ONC(=O)Cn1ccc([N+](=O)[O-])n1 was > 100 µM

The reported TGI of the molecule COc1ccc2c(c1)CCN1CCc3ccccc3CC21 (stereo not drawn) was 48.1 µM

The reported TGI of the molecule O=C1NC2OC(C(O)CO)C(O)C2O1 (stereo not drawn) was > 100 µM

The reported TGI of the molecule N#CC1CC2(C1)OCCS2 (stereo not drawn) was > 100 µM

The reported TGI of the molecule O=C(CN(c1ccccc1)c1ccccc1)n1nnc2ccccc21 was > 100 µM

The reported TGI of the molecule COc1cc(NC(C)CCCN)c2nccc(C)c2c1 (stereo not drawn) was 38.7 µM

The reported TGI of the molecule CC/C=C\C[C@H]1C/C=C2/C(=O)C=C[C@@H]2C/C=C\CCCC(=O)O1 was 3.22 µM

The reported TGI of the molecule Cc1c(C(=O)/C=C/c2ccccc2)[n+](=O)c2ccccc2n1[O-] was 30.2 µM

The reported TGI of the molecule O=C(O)C1C(Br)(c2ccccc2)C1(Br)c1ccccc1 (stereo not drawn) was 53.7 µM

The reported TGI of the molecule NC(=O)NCc1c(C(N)=O)ncn1Cc1ccccc1 was > 100 µM

The reported TGI of the molecule CC(=O)NC1c2ccccc2C(C)(C)C12CCC1(CC2)OCCO1 (stereo not drawn) was > 100 µM

The reported TGI of the molecule O=C1Nc2ccc(F)cc2/C1=C/c1ccc[nH]1 was > 25 µM

The reported TGI of the molecule Cn1c2ccccc2c(=O)c2ccc(Cl)cc21 was > 10 µM

The reported TGI of the molecule Cc1ccc2c(c1)C(=O)C1(C2)Cc2cccc(C)c2C1=O (stereo not drawn) was > 100 µM

The reported TGI of the molecule Nc1[nH]nc2nc3ccc(C(F)(F)F)cc3nc12 was > 100 µM

The reported TGI of the molecule CCN1CCC(O)(/C=C/c2ccc(C)cc2C)C(C(=O)/C=C/c2ccc(C)cc2C)C1 (stereo not drawn) was 3.37 µM

The reported TGI of the molecule CN(C)c1cc[c]([Sn]([c]2ccc(N(C)C)cc2)([c]2ccc(N(C)C)cc2)[c]2ccc(N(C)C)cc2)cc1 was 18.9 µM

The reported TGI of the molecule COc1ccc2cc(C(C)C(=O)N3CCOC3=O)ccc2c1 (stereo not drawn) was > 100 µM

The reported TGI of the molecule O=C(O)c1ccc(OCc2nc3cc(C(F)(F)F)ccc3nc2-c2ccccc2)cc1 was > 100 µM

The reported TGI of the molecule NNC(=O)CSc1nc2ccccc2c(=O)n1N was > 100 µM

The reported TGI of the molecule CC1=C(O)C(=O)C=C2C1=CC=C1[C@@]2(C)CC[C@@]2(C)[C@@H]3C[C@](C)(C(=O)O)CC[C@]3(C)CC[C@]12C was 0.155 µM

====

Test system: DU-145 prostate
Measurement Description: NCI tumour cell line growth inhibition, 48 h; in the data active means GI50 below about 0.43 µM; inactive means the rest
// one of active, inactive, no free text

Please indicate how the test categorized COc1ccc(-c2nn(-c3ccc(NC(=O)Nc4cc(C(F)(F)F)cc(C(F)(F)F)c4)cc3)cc2-c2ccncc2)cc1Cl .
inactive

Please indicate how the test categorized O=c1cc(NC2CCN(CCCc3ccccc3)CC2)c2cc(Cl)ccc2o1 .
inactive

Please indicate how the test categorized Nc1ccc(-c2nc3ccc(Cc4ccc5nc(-c6ccc(N)cc6)[nH]c5c4)cc3[nH]2)cc1 .
inactive

Please indicate how the test categorized COc1cc(C(=O)c2cc(C)c3[nH]c4ccc(C)cc4c3c2C)cc(OC)c1OC .
active

Please indicate how the test categorized COc1cc(/C=C/c2cc(/C=C/c3ccc(O)c(OC)c3)n(C(=O)Nc3ccc(C)cc3C)n2)ccc1O .
active

Please indicate how the test categorized O=C1Nc2ccc(F)cc2/C1=C/c1ccc[nH]1 .
inactive

Please indicate how the test categorized C#Cc1c(I)n(C2OC(CO[Si](C)(C)C(C)(C)C)C3OC(C)(C)OC32)c(=O)[nH]c1=O (centres undefined) .
inactive

Please indicate how the test categorized COc1cccc(C#Cc2ccccc2C#CCCCCO)c1 .
inactive

Please indicate how the test categorized O=S(=O)(Nc1cc(Sc2cccc3cccnc23)c(O)c2ccccc12)c1ccccc1 .
inactive

====

Tested on: OVCAR-8 ovarian
Measurement Description: NCI tumour cell line growth inhibition, 48 h
Endpoint: GI50

The reported GI50 of the compound COc1cc2[nH]c(C(=O)c3cc(OC)c(OC)c(OC)c3)c(N)c2cc1C#CC1CC1 was 5.3 µM

The reported GI50 of the compound Cc1[nH]c2ccccc2c(=O)c1CC=C(Cl)Cl was 66.6 µM

The reported GI50 of the compound COc1cccc2c(=O)c3c(sc12)c(N1CCNCC1)nc1ccccc13 was 2.43 µM

The reported GI50 of the compound O=c1c2ccccc2c(=O)c2c1[nH]c1c(-c3ccccc3)c(-c3ccccc3)c(=O)c12 was 2.79 µM

The reported GI50 of the compound Cc1ccc2[nH]c(O)c(N=Nc3ccc(S(N)(=O)=O)cc3)c2c1 was > 16.9 µM

The reported GI50 of the compound CC(C)C[C@H](NC(=O)/C=C/Cn1ccc2ccccc2c1=O)B(O)O was 14.2 µM

The reported GI50 of the compound O=C1Nc2ccc(F)cc2/C1=C/c1ccc[nH]1 was > 25 µM

====

Tested on: HT29 colon
Measurement Description: NCI tumour cell line growth inhibition, 48 h
Endpoint: GI50

The reported GI50 of the molecule COc1ccc(-c2nn(-c3ccc(NC(=O)Nc4cc(C(F)(F)F)cc(C(F)(F)F)c4)cc3)cc2-c2ccncc2)cc1Cl was 2.75 µM

The reported GI50 of the molecule CCSc1nc(SCC)c2cn[nH]c2n1 was 62.9 µM

The reported GI50 of the molecule CC(=O)N[C@H]1CSSC[C@@H](C(N)=O)NC(=O)[C@H](C(C)C)NC(=O)[C@H](C)NC(=O)[C@H](Cc2cnc[nH]2)NC1=O was > 100 µM

The reported GI50 of the molecule COc1cc(/C=C/c2cc(/C=C/c3ccc(O)c(OC)c3)n(C(=O)Nc3ccc(C)cc3C)n2)ccc1O was 0.903 µM

The reported GI50 of the molecule COc1ccc(C(=O)COc2ccc(/C=C3\COc4ccc(OC)cc4C3=O)cc2)cc1 was 22.2 µM

The reported GI50 of the molecule O=C(/C=C\c1ccc(NCc2ccc(C(=O)O)cc2)cc1)CCl was 18.9 µM

The reported GI50 of the molecule CC(=O)C(=CN1CCN(C(=O)c2ccco2)C1=S)C(C)=O was 17.1 µM

====

Tested on: EKVX NSCLC
Measurement Description: NCI tumour cell line growth inhibition, 48 h
Would you kindly list TGI for each of these molecules?

Summary line: COc1ccc2cc(C(C)C(=O)N3CCOC3=O)ccc2c1 (stereo not drawn) , EKVX NSCLC, reported TGI = > 100 µM

Summary line: CC(C)(C)OC(=O)NCCCNC1(c2cc3ccccc3s2)CCCCC1 , EKVX NSCLC, reported TGI = 28.6 µM

Summary line: CCOC(=O)C1C2CCC1CC(=NNc1ccc([N+](=O)[O-])cc1[N+](=O)[O-])C2 (stereo not drawn) , EKVX NSCLC, reported TGI = > 50 µM
